In this section, each of the compounds is paired with its reported Kp uu.
# experimental.details: Unbound tissue partition coefficient, ratio of drug level in adipose to plasma in Wistar Han rat at 1 to 2 mg/kg, iv infused for 10 to 20 hrs by LC-MS/MS analysis
# study.conditions: adipose/plasma

compound	Kp uu
Cc1ccc(NC(=O)N2CCN(Cc3sc4ccccc4c3C)CC2)nc1	4.8
COc1cc2c(cc1Cc1ccccc1)C[C@H](N)C(=O)N2OC(=O)N(C)C	1.1
Nc1noc2ccc(-c3cc(Cl)ccc3Oc3cc(F)c(S(=O)(=O)Nc4cscn4)cc3F)cc12	2.4
O=C(c1cccc(N2CCNCC2)n1)N1CCC(c2ccccc2F)CC1	2.4
O=C(NC1CCCC1)C1CCN(c2nc3cc(Cl)ccc3o2)CC1	3.9
Cn1cnc(-c2ccc(O[C@H]3CCN(C(=O)Cc4ccc(OC(F)(F)F)cc4)C[C@@H]3F)c(C(N)=O)c2)c1	0.21
CC(C)(CC1Cc2ccccc2C1)NC[C@@H](O)COc1cc(C2CC3CC2C2C(C(=O)O)C32)ccc1C#N (some centres undefined)	0.36
O=C(NC(c1ccccc1)c1ccccc1)C1CC1	3.9
C[C@H]1COCCN1c1nc(-c2cnc(N)nc2)c2c(n1)N([C@@]1(C)CCN(C(=O)C(C)(C)N)C1)CC2	6.9
